Give measured Percent Effect for each item. Keep answers brief.
Target: Sialic acid-binding Ig-like lectin 9 (Homo sapiens) (UniProt Q9Y336)
Sequence (Q9Y336 whole entry): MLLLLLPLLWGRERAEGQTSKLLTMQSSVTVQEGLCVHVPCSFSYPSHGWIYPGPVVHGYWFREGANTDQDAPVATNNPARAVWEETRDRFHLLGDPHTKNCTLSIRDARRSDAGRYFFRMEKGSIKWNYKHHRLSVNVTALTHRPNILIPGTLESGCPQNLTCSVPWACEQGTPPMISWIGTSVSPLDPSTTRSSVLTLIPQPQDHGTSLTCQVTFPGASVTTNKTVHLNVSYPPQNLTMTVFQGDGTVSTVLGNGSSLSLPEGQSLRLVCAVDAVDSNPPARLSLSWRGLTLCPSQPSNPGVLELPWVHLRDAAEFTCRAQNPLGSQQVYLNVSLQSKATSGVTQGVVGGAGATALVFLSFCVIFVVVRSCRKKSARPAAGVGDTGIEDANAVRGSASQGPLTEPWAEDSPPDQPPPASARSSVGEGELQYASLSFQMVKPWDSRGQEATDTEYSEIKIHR
Assay: Hs-Siglec9 ALPHAscreen SOP 20170721
Set-up: scale not given: direction of the effect not stated beside the values
Conditions: 10 µM
Report only the number, with the unit % understood.

What value of Percent Effect has been reported for the following molecule? COc1ccc2c(c1)OCC(CNC(=O)c1ccc(=O)n(C)c1)C2 (configuration not stated) 20.7

Ok, now Cc1cnn(CC2CN(CC(=O)NCc3ccccn3)CCO2)c1 (configuration not stated) 4.57

Same for COCCN1C[C@@H](C)[C@@]2(COCCN(C(=O)c3cnc(C)cn3)C2)C1 3.86

How about CN1CCCN(C(=O)c2ccc3c(c2)nc(N2CCOCC2)n3C)CC1 ? -0.695

Also CC(O)CN1CCN(C(=O)CN(C)c2ccc(Cl)cn2)CC1 (configuration not stated) , if possible. 7.01

Now try CC(NC(=O)NCCCn1cncn1)c1ccccc1Cl (configuration not stated) . -2.84

Subsequent entry: Cc1ccsc1C(=O)NCCCn1nc2ccccn2c1=O -0.759

Next up: CCNC(=O)c1ccc(N2CCCC(c3nccn3C(C)C)C2)nc1 (configuration not stated) 14.3

Quick one: c1ccc(-c2noc3c2CN(CC2CC2)CC3)cc1 -1.17

Param item: Cc1cc(-c2nn(C)c(Cl)c2CN2CCOCC2CC(=O)O)no1 (configuration not stated) 10.3

Would you mind doing c1cc2nccc(CC3CCCN(Cc4ncc[nH]4)CC3)c2cn1 (configuration not stated) as well? 12.8

Also, COCCc1noc(CN2CCCC(Cn3nc(C)nc3C)C2)n1 (configuration not stated) please. 6.95

* * *

Can you tell me Percent Effect for the items I'm about to list?
Species on record: Homo sapiens
Assay: To identify inhibition of the IFN signalling (Jak-Stat) pathway via expression of an eGFP reporter gene under the control of an IFN-stimulated response element (ISRE) containing MxA promoter.
Format: functional
Set-up: scale not given: direction of the effect not stated beside the values
Conditions: 30 µM
Please reply with the bare figure in % and do not write the unit itself.

Using the record for Cc1ncsc1C(=O)N(Cc1cccnc1)C1CC1 , report its Percent Effect. 16.3

How about this compound: CC(C)CCN(C)C(=O)c1nc(S(C)(=O)=O)n2ccccc12 0.306

Consider next the compound O=C(O)c1ccc(F)c(S(=O)(=O)Nc2c(F)cccc2-n2cccn2)c1 in the same way. 2.56

What about CC(C)(C)C(=O)NCCc1ccn(-c2ccccc2)n1 ? 2.37

Entry Cc1nn(C)c(N2CCOCC2)c1CNC1CCc2cc(F)ccc21 (stereo not drawn) please 0.31

Try the compound O=C(NCCO)C1(Cc2cc(-c3ccc(F)cc3F)no2)CCOCC1 23.3

Entry Cc1nc(-c2cccc(C(=O)O)c2)cc(C2CCN(C(C)C)C2)n1 (stereo not drawn) please 1.3

And what about the compound O=C(NCCn1ccnc1)N1CCN(Cc2cccs2)CC1 ? 12.6

# repeat for CC(C)Nc1ccc2nc(C3CCN(C(C)C)CC3)nn2c1 7.24

Please give the result for Cc1ccc(CNC2CCN(CCc3ccncc3)CC2)cc1C too. -6.77

Ok, now COc1ccc(CNC(=O)NC2CCC(O)CC2)c(C(F)(F)F)c1 (stereo not drawn) -1.15

Now consider COCc1cc(O)nc(C2CCCN(Cc3cc(OC)ccc3F)C2)n1 (stereo not drawn) and answer again. 16.7

Field entry: Cc1ccc(CCN2CCC(N(C)Cc3noc(C4CC4)n3)C2)cc1 (stereo not drawn) -3.17

Try COCCCNc1nccc(-c2c[nH][nH]c2=O)n1 next. 12.9

And what about the compound CN(C)CC1(O)CCN(S(=O)(=O)c2ccc(F)c(F)c2)C1 (stereo not drawn) ? 1.49

Same for Cc1[nH]c(=O)c(C#N)cc1C(=O)N1C[C@@H](CN2CCCC2)C[C@H](CO)C1 21.2

Next up: Cc1ccc(CN(C)CC(=O)NC2(C)CCS(=O)(=O)C2)cc1 (stereo not drawn) 21.9

Proceed to CCCc1nc(C(=O)N2CCCn3nc(CCC(=O)O)cc3C2)cs1 3.31

Please give the result for CC(=O)N1CCOC2(CCN(C(=O)c3cnoc3C)CC2)C1 too. -5.16

Subsequent entry: CCC(CNC(=O)c1ccc(=O)[nH]n1)N1CCc2ccccc2C1 (stereo not drawn) 2.58

Then what about the compound CCS(=O)(=O)N1CCC2(CC1)CC(Oc1ccccn1)CO2 (stereo not drawn) ? 17.8

Continue with COCCNC(=O)Nc1ccc(F)c(C(N)=O)c1 8.95

// next record Cc1ccccc1C(=O)N1CCC(n2nnc3cc(F)ccc32)CC1 7.34

Query CNC(=O)C1(CCCc2cccnc2)CCCCN1 (stereo not drawn) next 19

Can you handle CCn1ncc2c1CCCC2NCc1cccc2c1OCCO2 (stereo not drawn) next? 12.6

Now the compound COc1ccc(C2Nc3cc(Cl)ccc3C3=NCCN32)cc1OC (stereo not drawn) 8.26

Same question, O=C(NCCNc1ncccn1)N1CCCC(C(F)(F)F)C1 (stereo not drawn) this time 6.58

Request: CC(C)c1nnc(CN2CCCC2Cn2cncn2)o1 (stereo not drawn) -4.77

Now the compound COCC1COCCC12CCN(C(=O)CCOc1ccccc1)CC2 (stereo not drawn) -0.428

Would you mind doing CCc1noc(CNc2cc(F)ccc2OCC2CCCO2)n1 (stereo not drawn) as well? 2.67

COc1ccc(NC(=O)Cn2nc(C)ccc2=O)cc1OC , same question. -3.33

For O=C(NC1CC(=O)N(Cc2cccc(F)c2)C1)c1ccncc1 (stereo not drawn) then? 1.72

Then this compound: Cc1cn2nc(N3CCCC3Cn3nc(C)cc3C)sc2n1 (stereo not drawn) 19.6

Now try Cc1nc[nH]c1CN1CCN(C(=O)CCC(F)(F)F)[C@H]2CS(=O)(=O)C[C@H]21 . 11.2

What do you have for COCCN1CCc2cc(C(=O)N(C)C)c(NCC3CC3)nc2CC1 ? -19.8

Same question for CCNc1nc2c(s1)C(=O)CN(C(=O)NCCc1ccccc1)C2 please. 9.15

Same for COc1cccc(C(=O)N2CCCCC2CNC(N)=O)c1 (stereo not drawn) 1.79

Do the same for COc1c(C)cnc(CN2CCC(C(=O)N(C)C)CC2)c1C please -0.558

Another: CN(Cc1ncc[nH]1)S(=O)(=O)c1cccc(C(=O)N2CCOCC2)c1 0.0404

Now try CCc1nc(C2CCCN(C(=O)c3cn(C)nc3C)C2)no1 (stereo not drawn) . 9

Next compound up: Cc1ccc(C(CNC(=O)NCc2cc[nH]n2)N2CCOCC2)o1 (stereo not drawn) 24.3

Okay, and Cn1cc(CN2CCOCC3(C2)CN(c2ccccc2)C(=O)CO3)cn1 (stereo not drawn) ? -7.25

Next compound up: COCCOCc1cccc(NC(=O)N2CCCC2c2ccncc2)c1 (stereo not drawn) 16.9

Then what about the compound CC(C)c1cc(C(F)(F)F)n2nc(CCC(=O)O)nc2n1 ? 19.8

Note, next up: CCCNC(=O)c1ccc2c(c1)C(=O)N(CC(C)C)C2=O 0.98

Another compound to check: O=C(C1CCOCC1)N1CC[C@H]2C[C@@H](c3ccncn3)O[C@@H]2C1 -13.3

Moving on to O=C(CCN1C(=O)CCC1=O)Nc1cnn(-c2ccccc2Cl)c1 20.3

Same for COc1cccc(-c2noc(-c3ccc(NCC4CC4)nc3)n2)c1OC 31.3
